# Test system: stress ulcer
# experiment: Effect on stress ulcer (water-immersion restraint), oral
# Assay type: in vivo, SD rats
# setup.conditions: Rattus norvegicus; 30 mg/kg, oral, 30 minutes before stress load, male SD rats, 23° C. water immersion, 7 hours; read-out: Inhibition rate (stress ulcer)
endpoint.label: inhibition in vivo at 30 mg/kg
Kindly report the value followed by its unit.

Noted for O=C(Sc1cccn2c(=O)ccnc12)N1CCSC1 : its inhibition in vivo at 30 mg/kg reads 70%

Memo: CCOC(=O)c1cnc2c(SC(=O)N3CCCCC3)cccn2c1=O , reported inhibition in vivo at 30 mg/kg: 81%

Lab note: CCOC(=O)c1cnc2c(SC(=O)N3CCSC3)cccn2c1=O gave inhibition in vivo at 30 mg/kg of 89%

inhibition in vivo at 30 mg/kg reading for O=C(Sc1cccn2c(=O)ccnc12)N1CCOCC1 : 80%

GET /value?item= O=C(Sc1cccn2c(=O)ccnc12)N1CCSCC1 &field=inhibition in vivo at 30 mg/kg returns 71%

Just so you know, measured inhibition in vivo at 30 mg/kg for CCOC(=O)c1cnc2c(SC(=O)N3CCCC3)cccn2c1=O came out at 85%
